quantity name: melting point

• CCC(=O)Oc1cc2oc(-c3ccccc3)cc(=O)c2c(O)c1OC(=O)CC [5e, 5-Hydroxy-6,7-dipropionoxyflavone] = 132 to 134 °C
• CCC(=O)Oc1c(OC(=O)CC)c(OC(=O)CC)c2c(=O)cc(-c3ccccc3)oc2c1Br = 113 to 115 °C
• COc1cc2oc(-c3ccc([N+](=O)[O-])cc3)cc(=O)c2c(O)c1OC [5q, 5-Hydroxy-6,7-dimethoxy-4′-nitroflavone] = 145 to 150 °C
• COc1cc2oc(-c3ccc([N+](=O)[O-])cc3)cc(=O)c2c(O)c1O [5r, 5,6-Dihydroxy-7-methoxy-4′-nitroflavone] = 174 to 178 °C

---

protocol details: Cellular toxicity in LLC/MK2 cells (MTS assay)
Type: cell-based
stated conditions: rhesus monkey
quantity name: viability at 2 days, 10 µM (%)

• COc1cc2oc(-c3ccc([N+](=O)[O-])cc3)cc(=O)c2c(O)c1O [5r, 5,6-Dihydroxy-7-methoxy-4′-nitroflavone] = 91.6
• CCC(=O)Oc1cc2oc(-c3ccccc3)cc(=O)c2c(O)c1OC(=O)CC [5e, 5-Hydroxy-6,7-dipropionoxyflavone] = 89.6
• O=c1cc(-c2ccc(Br)cc2)oc2cc(O)c(O)c(O)c12 [5m, 4′-Bromo-5,6,7-trihydroxyflavone] = 90
